Target: T1, cynomolgus monkey CD8 alpha on primary cynomolgus CD8+ T cells (cynomolgus monkey, UniProt P01732 23-235 (human entry))
T1 construct: also called Cyno CD8alpha; cyno CD8A
T1 sequence (P01732 other isoform, or with tags, fused parts or gaps limits assumed): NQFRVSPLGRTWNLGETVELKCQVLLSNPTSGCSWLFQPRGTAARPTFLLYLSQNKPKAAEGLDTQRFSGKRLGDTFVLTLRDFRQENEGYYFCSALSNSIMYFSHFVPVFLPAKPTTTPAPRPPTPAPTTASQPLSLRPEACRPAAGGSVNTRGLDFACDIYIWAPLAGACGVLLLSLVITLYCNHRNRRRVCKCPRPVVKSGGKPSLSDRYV
Experiment: flow cytometry, cyno CD8+ T cells
Recorded Cyno T-cell Binding 0.2 uM (MFI), one value per entry.
metric-name: Cyno T-cell Binding 0.2 uM (MFI)

INSERT INTO measurements (binder, metric_name, display_unit, observed_result) VALUES
  ('P283FR9P1366_H7 (designed binder, FN3 domain) LPAPKNLVVSRVTEDSARLSWTAPDAAFDSFQIAYPEYPALGEAIVLTVPGSERSYDLTGLKPGTEYFVIIAGVKGGIQSWPLSAIFTT', 'Cyno T-cell Binding 0.2 uM (MFI)', 'MFI', 1240),
  ('P283BR9P1363_E6 (designed binder, FN3 domain) LPAPKNLVVSRVTEDSARLSWYARKFISPFDSFLIQYQESEKVGEAIVLTVPGSERSYDLTGLKPGTEYTVSIYGVDVKWEGNRPVASNPLSAIFTT', 'Cyno T-cell Binding 0.2 uM (MFI)', 'MFI', 3720),
  ('P283FR9P1366_H3 (designed binder, FN3 domain) LPAPKNLVVSRVTEDSARLSWTAPDAAFDSFAIAYPEWPIKGEAIVLTVPGSERSYDLTGLKPGTEYWVVIYGVKGGVFSEPLSAIFTT', 'Cyno T-cell Binding 0.2 uM (MFI)', 'MFI', 3170),
  ('P283ER9P1365_E2 (designed binder, FN3 domain) LPAPKNLVVSRVTEDSARLSWTAPDAAFDSFYIPYRESEFRGEAIALPVPGSERSYDLTGLKPGTKYRVIIIGVKGGEFSQPLAAIFTT', 'Cyno T-cell Binding 0.2 uM (MFI)', 'MFI', 1900),
  ('P283DR9P1364_A4 (designed binder, FN3 domain) LPAPKNLVVSRVTEDSARLSWTAPDAAFDSFYIAYPEWPVQGEAIVLTVPGSERSYDLTGLKPGTEYFVIIYGVKGGDWSEPLSAIFTT', 'Cyno T-cell Binding 0.2 uM (MFI)', 'MFI', 6650),
  ('P283DR9P1364_H11 (designed binder, FN3 domain) LPAPKNLVVSRVTEDSARLSWTAPDAAFDSFDIAYPELPLGGEAIVLTVPGSERSYDLTGLKPGTEYFVIIWGVKGGDRSEPLSAIFTT', 'Cyno T-cell Binding 0.2 uM (MFI)', 'MFI', 9460),
  ('P283HR7P1368_D1 (designed binder, FN3 domain) LPAPKNLVVSRVTEDSARLSWTAPDAAFDSFGISYYEWAPNGEAIQLSVPGSERSYDLTGLKPGTEYHVVIIGVKGGEPSHPLGAPFTT', 'Cyno T-cell Binding 0.2 uM (MFI)', 'MFI', 1410),
  ('P283FR9P1366_A5 (designed binder, FN3 domain) LPAPKNLVVSRVTEDSARLSWTAPDAAFDSFWIAYPEWPTRGEAIVLTVPGSERSYDLTGLKPGTEYFVVIYGVKGGSPSPPLSAIFTT', 'Cyno T-cell Binding 0.2 uM (MFI)', 'MFI', 10900),
  ('P283ER9P1365_G3 (designed binder, FN3 domain) LPAPKNLVVSRVTEDSARLSWTAPDAAFDSFGISYYEWAPNGEAIQLSVPGSERSYDLTGLKPGTEYHVVIIGVKGGEPSHPLGAIFTT', 'Cyno T-cell Binding 0.2 uM (MFI)', 'MFI', 1470),
  ('P283FR9P1366_F8 (designed binder, FN3 domain) LPAPKNLVVSRVTEDSARLSWTAPDAAFDSFAIAYPEIAKWGEAIVLTVPGSERSYDLTGLKPGTEYFVIIYGVKGGVHSFPLSAIFTT', 'Cyno T-cell Binding 0.2 uM (MFI)', 'MFI', 2270),
  ('P283GR7P1367_H9 (designed binder, FN3 domain) LPAPKNLVVSRVTEDSARLSWTAPDAAFDSFDIAYPEWPTDGEAIVLTVPGSERSYDLTGLKPGTEYFVVIYGVKGGGRSAPLSAIFTT', 'Cyno T-cell Binding 0.2 uM (MFI)', 'MFI', 918),
  ('P283FR9P1366_H5 (designed binder, FN3 domain) LPAPKNLVVSRVTEDSARLSWTAPDAAFDSFIYIENKVNGEAIVLTVPGSERSYDLTGLKPGTEYHVTIGGVKGGTESNTLSAIFTT', 'Cyno T-cell Binding 0.2 uM (MFI)', 'MFI', 477),
  ('P283DR9P1364_G10 (designed binder, FN3 domain) LPAPKNLVVSRVTEDSARLSWTAPDAAFDSFSIAYPEWPGSGEAIVLTVPGSERSYDLTGLKPGTEYFVVIFGVKGGSQSWPLSAIFTT', 'Cyno T-cell Binding 0.2 uM (MFI)', 'MFI', 769),
  ('P283HR7P1368_A10 (designed binder, FN3 domain) LPAPKNLVVSRVTEDSARLSWTAPDAAFDSFWIFYLEPFPRGEAIPLEVPGSERSYDLTGLKPGTEYSVDIRGVKGGDHSDPLWAYFTT', 'Cyno T-cell Binding 0.2 uM (MFI)', 'MFI', 4770),
  ('P283FR9P1366_C4 (designed binder, FN3 domain) LPAPKNLVVSRVTEDSARLSWTAPDAAFDSFNIAYPEWPVRGEAIVLTVPGSERSYDLTGLKPGTEYWVIIIGVKGGEDSWPLSAIFTT', 'Cyno T-cell Binding 0.2 uM (MFI)', 'MFI', 10200),
  ('P283HR7P1368_G10 (designed binder, FN3 domain) LPAPKNLVVSRVTEDSARLSWTAPDAAFDSFGIAYVEWWHRGEAISLPVPGSERSYDLTGLKPGTEYWVTILGVKGGIISTPLGASFTT', 'Cyno T-cell Binding 0.2 uM (MFI)', 'MFI', 2660),
  ('P283DR9P1364_H1 (designed binder, FN3 domain) LPAPKNLVVSRVTEDSARLSWTAPDAAFDSFQISYPEWPVHGEAIVLTVPGSERSYDLTGLKPGTEYWVIIWGVKGGRQSWPLSAIFTT', 'Cyno T-cell Binding 0.2 uM (MFI)', 'MFI', 10600),
  ('P283FR9P1366_H11 (designed binder, FN3 domain) LPAPKNLVVSRVTEDSARLSWTAPDAAFDSFQIQYLETAPDGEAIVLTVPGSERSYDLTGLKPGTEYYVWIPGVKGGAFSPLSAIFTT', 'Cyno T-cell Binding 0.2 uM (MFI)', 'MFI', 3660);
